Source: PubChem BioAssay (NCI)

System: HT29 colon
run.description: NCI tumour cell line growth inhibition, 48 h
Below: a set of entries, each annotated with reported TGI.

Check out these entries, answers already filled in.
compound=CC#C[P+](c1ccccc1)(c1ccccc1)c1ccccc1 property_label=TGI measured_result="12.9 µM"
compound=C[C@@]12CCC3C1C=C1C(=O)c4cc(O)ccc4C(=O)[C@]1(O2)[C@@]3(C)C=O property_label=TGI measured_result="20.9 µM"
compound=COc1ccc(C(=O)/C=C/c2ccncc2)cc1OC property_label=TGI measured_result="21.7 µM"

Challenge: Supply TGI value. Item: CS(=O)(=O)CCCn1c(=O)c(Oc2ccc(F)cc2F)cc2cnc(NC3CCOCC3)nc21
Response given: > 25 µM

Challenge: Specify TGI for CN1CCN(CN2C(=O)C3C4C=CC(C3C2=O)C2C(=O)N(CN3CCN(C)CC3)C(=O)C42)CC1 (stereo not given) and stop.
Response given: 49.3 µM
